- test.system: C-C chemokine receptor type 3 (Homo sapiens, UniProt P51677)
- Sequence (P51677 whole entry): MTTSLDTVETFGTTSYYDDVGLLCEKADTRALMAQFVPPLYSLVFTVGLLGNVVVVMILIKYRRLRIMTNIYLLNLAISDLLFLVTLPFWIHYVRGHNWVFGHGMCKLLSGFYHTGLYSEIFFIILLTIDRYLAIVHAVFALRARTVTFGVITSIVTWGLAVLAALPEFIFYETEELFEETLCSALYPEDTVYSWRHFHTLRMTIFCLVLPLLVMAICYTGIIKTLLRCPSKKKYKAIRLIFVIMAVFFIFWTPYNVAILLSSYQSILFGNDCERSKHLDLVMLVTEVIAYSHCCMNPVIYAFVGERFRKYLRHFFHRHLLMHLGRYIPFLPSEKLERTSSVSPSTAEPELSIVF
- measurement.description: […] against C-C chemokine receptor type 3 by displacing Eotaxin radioligand, using [Ca2+] mobilization assay
- Type: functional
attribute.measured: IC50 (nM)
Numeric answer only, unit nM assumed.

input: Which IC50 reading was recorded for the molecule COC(=O)[C@H](Cc1ccc([N+](=O)[O-])cc1)NC(=O)c1cccc2ccccc12 ?
output: 38

====

- test.system: C-C chemokine receptor type 3 (Homo sapiens, UniProt P51677)
- measurement.description: […] activity against C-C chemokine receptor type 3 by displacing [125I]-MCP-4 radioligand, using CCR3 binding assay
attribute.measured: pIC50
pIC50 (log units): -log10 of the concentration in mol/L.

input: What value of pIC50 on C-C chemokine receptor type 3 (Homo sapiens, UniProt P51677) does COC(=O)[C@H](Cc1ccc([N+](=O)[O-])cc1)NC(=O)c1cccc2ccccc12 have?
output: 8.15

====

- test.system: C-C chemokine receptor type 3 (Homo sapiens, UniProt P51677)
- measurement.description: Inhibitory activity against human eosinophil C-C chemokine receptor type 3 using [125I]- human eotaxin as the radioligand
attribute.measured: log10 IC50 (log10 of the value in nM)
Form field - Quantity: IC50; Unit: nM; Scale: log10

* CCOC(=O)[C@H](Cc1c[nH]c2ccccc12)NC(=O)c1ccccc1 | 2.51
* CCOC(=O)[C@H](C)NC(=O)c1ccccc1 | 3.95
* CCOC(=O)[C@H](Cc1cc(I)c(O)c(I)c1)NC(=O)c1ccccc1 | 2.73
* O=C(N[C@@H](Cc1ccc([N+](=O)[O-])cc1)C(=O)OCc1ccccc1)c1cccc2ccccc12 | 1.26
* CCOC(=O)[C@H](Cc1ccc(O)cc1)NC(=O)c1cccc2ccccc12 | 1.90
* CCOC(=O)[C@H](Cc1ccccc1)NC(=O)c1ccccc1 | 2.28
* CCOC(=O)[C@H](Cc1ccc([N+](=O)[O-])cc1)NC(=O)c1ccccc1 | 1.69
* CCOC(=O)[C@H](Cc1ccc(O)cc1)NC(=O)Cc1ccccc1 | 3.41

input: Find the recorded log10 IC50 belonging to CCOC(=O)[C@H](CCc1ccccc1)NC(=O)c1ccccc1 and report it.
output: 3.77

input: Which value of log10 IC50 has been reported for O=C(N[C@@H](Cc1ccc([N+](=O)[O-])cc1)C(=O)NCc1ccccc1)c1cccc2ccccc12 in the records?
output: 3.60

====

- test.system: C-C chemokine receptor type 3 (Homo sapiens, UniProt P51677)
- measurement.description: Inhibitory activity against human eosinophil C-C chemokine receptor type 3 using [125I]- human eotaxin as the radioligand
Where a SMILES comes first, the peptide text is derived from it. The star is where a group is joined. Cbz = O=C(OCc1ccccc1)*
# log10(IC50) values compiled below
Hey, these are logged values: log10 of IC50, nM being the unit before logging.

* CCOC(=O)[C@H](Cc1ccc([N+](=O)[O-])cc1)NC(=O)c1ccc(C)cc1C | 0.48
* CCOC(=O)[C@H](Cc1ccc(O)cc1)NC(=O)[C@H](Cc1ccccc1)NC(=O)OCc1ccccc1 (Cbz-Phe-Tyr-OEt) | 3.80
* COC(=O)[C@H](Cc1ccc([N+](=O)[O-])cc1)NC(=O)c1cccc2ccccc12 | 0.70
* CC(C)OC(=O)[C@H](Cc1ccc([N+](=O)[O-])cc1)NC(=O)c1cccc2ccccc12 | 1.32
* CCOC(=O)[C@H](Cc1ccc(O)cc1)NS(=O)(=O)c1ccc(C)cc1 | 4.20

input: # log10(IC50) lookup, item CC(C)(C)OC(=O)[C@H](Cc1ccc([N+](=O)[O-])cc1)NC(=O)c1cccc2ccccc12
output: 1.76

====

- test.system: C-C chemokine receptor type 3 (Homo sapiens, UniProt P51677)
- measurement.description: Inhibitory activity against human eosinophil C-C chemokine receptor type 3 using [125I]- human eotaxin as the radioligand
Where a SMILES comes first, the peptide text is derived from it. The star is where a group is joined. Cbz = O=C(OCc1ccccc1)*
Attribute: IC50

Solved cases below.
- CN(C)C(=O)[C@H](Cc1ccc([N+](=O)[O-])cc1)NC(=O)c1cccc2ccccc12: > 33 µM
- CCOC(=O)[C@@H](Cc1ccc(O)cc1)NC(=O)c1ccccc1: > 50 µM
- CCOC(=O)[C@H](Cc1ccc(O)cc1)NC(=O)Nc1ccccc1: > 33 µM
- CCOC(=O)[C@H](Cc1ccc(O)cc1)NC(=O)[C@H](CO)NC(=O)OCc1ccccc1 (Cbz-Ser-Tyr-OEt): > 25 µM
- CCOC(=O)[C@@H](NC(=O)c1ccccc1)c1ccccc1: > 20 µM

input: Item under review: CCCC(=O)[C@H](Cc1ccc([N+](=O)[O-])cc1)NC(=O)c1cccc2ccccc12 . Reported IC50?
output: > 33 µM

input: Requested field: IC50. Item: CCOC(=O)[C@H](Cc1ccc(O)cc1)NC(=O)[C@H](CCC(N)=O)NC(=O)OCc1ccccc1 (Cbz-Gln-Tyr-OEt)
output: > 25 µM

input: Query (compound): CCOC(=O)[C@H](Cc1ccc(O)cc1)NC(=O)c1ccccc1 ; field requested: IC50
output: 0.383 µM

input: Fill blank: measured IC50 of the compound CCOC(=O)[C@H](Cc1ccc(O)cc1)NC(=O)c1ccccn1 is ____.
output: 1.7 µM

input: Which IC50 value is on record for CCOC(=O)[C@H](Cc1ccc([N+](=O)[O-])cc1)NC(=O)c1cccc2ccccc12 ?
output: 0.008 µM
